test system: HEK-293T; experiment: Multiplex assay against HEK293T; format: toxicity, cell-based; conditions: human, 12 h, 1 µM, compound concentration 1 uM, replicate 2
Catalogue of molecules with associated Total Cell Count
Just the number, please.

For orientation, consider the following solved cases.
MOLECULE	REPORTED_PROPERTY	READING
Cc1ccc(C(C)(O)c2nc3ccccc3s2)c(C)c1 (stereo unspecified)	Total Cell Count	308
O=C(O)c1cc2ccccc2c(Cc2c(O)c(C(=O)O)cc3ccccc23)c1O	Total Cell Count	303
COc1cc(NC(=O)CCN2CCC(OC(=O)Nc3ccccc3-c3ccccc3)CC2)c(Cl)cc1CNC[C@H](O)c1ccc(O)c2[nH]c(=O)ccc12	Total Cell Count	285

What the record says about Cc1ccc(-c2ccc(F)cc2COc2ccc(CCC(=O)O)cc2)cc1 : Total Cell Count is 324

What the record says about CSc1ccccc1N1CCN(CCCCCC(=O)NC2CCCc3ccccc32)CC1.Cl (stereo unspecified) : Total Cell Count is 322

What the record says about COc1c(C)cc(NC(=O)c2nn(Cc3ccc(F)cc3)c3c2CN(C(=O)c2ccc[nH]2)C[C@]3(C)C(N)=O)cc1C : Total Cell Count is 304

----------
test system: U2OS; assay: Multiplex assay against U2OS; assay type: toxicity, cell-based; conditions: human, 24 h, 10 µM, compound concentration 10 uM, replicate 2
Catalogue of compounds with associated Population Healthy Nuclei (%)
Report as a plain number; the unit % is understood.

For orientation, consider the following solved cases.
CHEMICAL_SMILES	REPORTED_PROPERTY	READING
CN1CCN(c2nc3cc(C(F)(F)F)ccc3n3cccc23)CC1.O=C(O)/C=C\C(=O)O.O=C(O)/C=C\C(=O)O	Population Healthy Nuclei (%)	71
O=C(NCC(=O)N1CC[C@H](N[C@H]2CC[C@@](O)(c3ccc(-c4ncccn4)cn3)CC2)C1)c1cccc(C(F)(F)F)c1	Population Healthy Nuclei (%)	70
O=C1COc2nccc(-c3ccccc3F)c2CN1Cc1cc(C(F)(F)F)cc(C(F)(F)F)c1	Population Healthy Nuclei (%)	70

Now, please, on to the next compound.
The compound CCCn1c(=O)c2[nH]c(C3CCCC3)nc2n(CCC)c1=O , tested on U2OS, showed Population Healthy Nuclei (%) of 71

----------
Catalogue of compounds with associated Population Healthy Nuclei (%)
system: U2OS; assay: Multiplex assay against U2OS; format: toxicity, cell-based; conditions: human, 24 h, 10 µM, compound concentration 10 uM, replicate 2
Report as a plain number; the unit % is understood.

For orientation, consider the following solved cases.
CHEMICAL_SMILES	READING
COc1cc(C(=O)N(CCCc2ccccc2)Cc2ccc(CC(=O)O)cc2)cc(OC)c1C	80
O=C(O)c1cc2ccccc2c(Cc2c(O)c(C(=O)O)cc3ccccc23)c1O	79

The compound CSCC[C@H](NC=O)C(=O)N[C@@H](CC(C)C)C(=O)N[C@@H](Cc1ccccc1)C(=O)O , tested on U2OS, showed Population Healthy Nuclei (%) of 70

The compound CC(=O)NCCc1c(Cc2ccccc2)[nH]c2ccccc12 , tested on U2OS, showed Population Healthy Nuclei (%) of 80

----------
Catalogue of compounds with associated Population Mitochondria Different-Phenotype (%)
test system: HEK-293T; experiment: Multiplex assay against HEK293T; type: toxicity, cell-based; details: human, 24 h, 1 µM, compound concentration 1 uM, replicate 1
Report as a plain number; the unit % is understood.

CHEMICAL_SMILES	EXPERIMENTAL_TARGET	READING
CN1CCN(c2nc3cc(C(F)(F)F)ccc3n3cccc23)CC1.O=C(O)/C=C\C(=O)O.O=C(O)/C=C\C(=O)O	HEK-293T	30
COc1c(C)cc(NC(=O)c2nn(Cc3ccc(F)cc3)c3c2CN(C(=O)c2ccc[nH]2)C[C@]3(C)C(N)=O)cc1C	HEK-293T	30

What the record says about Cc1ccc(F)cc1C(=O)Nc1ccc(C(=O)N2Cc3cccn3Cc3ccccc32)c(Cl)c1 : Population Mitochondria Different-Phenotype (%) is 30

----------
Catalogue of molecules with associated Population Apoptotic (%)
tested on: U2OS; assay: Multiplex assay against U2OS; assay type: toxicity, cell-based; settings: human, 48 h, 10 µM, compound concentration 10 uM, replicate 1

MOLECULE	EXPERIMENTAL_TARGET	Population Apoptotic (%)
CN1CCN(c2nc3cc(C(F)(F)F)ccc3n3cccc23)CC1.O=C(O)/C=C\C(=O)O.O=C(O)/C=C\C(=O)O	U2OS	78%
O=S(=O)(c1ccccc1)c1cnc2c(N3CCNCC3)cccc2c1 [INTEPIRDINE]	U2OS	78%
CC(C)(C)c1ccc(S(=O)(=O)Nc2ccc(Cl)cc2C(=O)c2cc[n+]([O-])cc2)cc1	U2OS	79%
Oc1c(CN2CCN(c3ccccn3)CC2)cc(Cl)c2cccnc12	U2OS	96%
O=C(NCC(=O)N1CC[C@H](N[C@H]2CC[C@@](O)(c3ccc(-c4ncccn4)cn3)CC2)C1)c1cccc(C(F)(F)F)c1	U2OS	69%
Cc1ccc(F)cc1C(=O)Nc1ccc(C(=O)N2Cc3cccn3Cc3ccccc32)c(Cl)c1	U2OS	75%
CNC[C@H](O)c1ccc(O)c(O)c1 [EPINEPHRINE]	U2OS	92%
c1cc(OCCCN2CCCCC2)ccc1CN1CCCCC1	U2OS	86%

What the record says about O=C(NCCO)c1cccc(-c2cc(Nc3ccc(OC(F)(F)F)cc3)ncn2)c1 : Population Apoptotic (%) is 92%

----------
Catalogue of molecules with associated Population Mitotic Cells (%)
test system: HEK-293T; test: Multiplex assay against HEK293T; assay type: toxicity, cell-based; settings: human, 12 h, 1 µM, compound concentration 1 uM, replicate 1

For orientation, consider the following solved cases.
MOLECULE	READING
O=S(=O)(c1ccccc1)c1cnc2c(N3CCNCC3)cccc2c1 [INTEPIRDINE]	60%
C[C@H](NC(=O)c1c(C(F)F)nn(C)c1Oc1cccc(C(F)(F)F)c1)c1ccc(C(=O)O)cc1	59%
CCCC(CCC)C(=O)O	60%

Now, please, on to the next molecule.
What the record says about CC1(COc2ccc3c(c2)ncn3-c2ccc3cccc(N4CCC(N)CC4)c3n2)COC1 : Population Mitotic Cells (%) is 41%

----------
Catalogue of molecules with associated Population Normal (%)
tested on: Fibroblast; assay: Multiplex assay against human fibroblast; format: toxicity, cell-based; settings: 12 h, 1 µM, compound concentration 1 uM, replicate 1
Report as a plain number; the unit % is understood.

MOLECULE	Population Normal (%)
CSc1ccccc1N1CCN(CCCCCC(=O)NC2CCCc3ccccc32)CC1.Cl (centres undefined)	93
CN(C)c1ccnc2sc3c(=O)n(N4CCCCCC4)cnc3c12	96
Cc1ccc(F)cc1C(=O)Nc1ccc(C(=O)N2Cc3cccn3Cc3ccccc32)c(Cl)c1	94

What the record says about Oc1c(CN2CCN(c3ccccn3)CC2)cc(Cl)c2cccnc12 : Population Normal (%) is 95

What the record says about C[C@H](NC(=O)c1c(C(F)F)nn(C)c1Oc1cccc(C(F)(F)F)c1)c1ccc(C(=O)O)cc1 : Population Normal (%) is 94

What the record says about CCOc1c2c(c(OCC)c3ncccc13)CN(c1ccc(CS(=O)(=O)NC(=O)Cc3ccccc3OC)cc1C)C2=O : Population Normal (%) is 99

----------
test system: HEK-293T; assay: Multiplex assay against HEK293T; format: toxicity, cell-based; conditions: human, 48 h, 10 µM, compound concentration 10 uM, replicate 2
REPORTED_PROPERTY: Population Normal (%)
The reply should read as a number followed by its unit.

For orientation, consider the following solved cases.
COMPOUND	EXPERIMENTAL_TARGET	REPORTED_PROPERTY	READING
Cc1ccc(F)cc1C(=O)Nc1ccc(C(=O)N2Cc3cccn3Cc3ccccc32)c(Cl)c1 [LIXIVAPTAN]	HEK-293T	Population Normal (%)	91%
N#Cc1c(N)nc(SCc2csc(-c3ccc(Cl)cc3)n2)c(C#N)c1-c1ccc(OCCO)cc1 [CAPADENOSON]	HEK-293T	Population Normal (%)	89%

Now, please, on to the next compound.
What the record says about CN(C)CCCc1cc(C(=O)Nc2ccc(-c3ccncc3)cc2)ccc1O.Cl.Cl : Population Normal (%) is 88%

----------
tested on: HEK-293T; assay: Multiplex assay against HEK293T; assay type: toxicity, cell-based; conditions: human, 48 h, 10 µM, compound concentration 10 uM, replicate 1
REPORTED_PROPERTY: Population Mitotic Cells (%)

MOLECULE	Population Mitotic Cells (%)
COc1ccccc1N1CCN(CCCCNC(=O)c2ccc3ccccc3c2)CC1.Cl	40%

What the record says about O=C1COc2nccc(-c3ccccc3F)c2CN1Cc1cc(C(F)(F)F)cc(C(F)(F)F)c1 : Population Mitotic Cells (%) is 55%

What the record says about CCNC1(C(N)=O)CCN(c2ncnc3c2nc(-c2ccccc2Cl)n3-c2ccc(Cl)cc2)CC1 : Population Mitotic Cells (%) is 47%
